# measuredTarget: T1, human TREM2 (human, UniProt Q9NZC2 19-174, limits assumed)
# T1 construct: also called triggering receptor expressed on myeloid cells 2
# T1 sequence: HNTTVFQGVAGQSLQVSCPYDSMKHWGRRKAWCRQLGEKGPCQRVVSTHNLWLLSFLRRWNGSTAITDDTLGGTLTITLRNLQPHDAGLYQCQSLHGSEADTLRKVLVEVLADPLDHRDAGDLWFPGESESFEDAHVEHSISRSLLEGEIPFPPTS
# assayOverview: 1st screen (110 nM or 10 nM)
readout: Binding Signal (fold over 6E7 Parental antibody) (fold)
State just the number; it will be interpreted in fold.

# binder, measurementUnits, recordedValue
rows = [
    ("V82 (antibody, V domains shown) VH: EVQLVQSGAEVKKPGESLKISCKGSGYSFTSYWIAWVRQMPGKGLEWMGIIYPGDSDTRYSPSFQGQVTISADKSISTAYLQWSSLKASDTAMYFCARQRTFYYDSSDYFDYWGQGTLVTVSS VL: DIQMTQSPSSVSASVGDRVTITCRASQGISSWLAWYQQKPGKAPKLLIYAGSSLQNGVPSRFSGSGSGTDFTLTISSLQPEDFATYFCQQADSFPRTFGQGTKLEIK", "fold", 0.3),
]

-- ask Binding Signal (fold over 6E7 Parental antibody) for V38 (antibody, V domains shown) VH: EVQLVQSGAEVKKPGESLKISCKGSGYSFGSYWIAWVRQMPGKGLEWMGIIYPGDSDVRYSPSFQGQVTISADKSISTAYLQWSSLKASDTAMYFCARQRTFYYDSSDYFDYWGQGTLVTVSS VL: DIQMTQSPSSVSASVGDRVTITCRASQGISSWLAWYQQKPGKAPKLLIYAASSRQNGVPSRFSGSGSGTDFTLTISSLQPEDFATYFCQQADSHPRTFGQGTKLEIK ?
-- reply 4.34

-- ask Binding Signal (fold over 6E7 Parental antibody) for V73 (antibody, V domains shown) VH: EVQLVQSGAEVKKPGESLKISCKGSGYSFGSYWIAWVRQMPGKGLEWMGIIYPGDSDTRYSPGFQGQVTISADKSISTAYLQWSSLKASDTAMYFCARGRTFYYDSSDYFDYWGQGTLVTVSS VL: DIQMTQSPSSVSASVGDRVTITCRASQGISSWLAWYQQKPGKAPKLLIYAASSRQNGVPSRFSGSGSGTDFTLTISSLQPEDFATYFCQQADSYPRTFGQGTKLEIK ?
-- reply 5.12
